- assayed_system: recombinant wild-type SARS-CoV-2 S trimer (ELISA antigen) (SARS-CoV-2 wild-type, UniProt P0DTC2)
quantity: binding result

P10S-1G4 (antibody, V domains shown) VH: QVQLQESGPGLVKPSQTLSLTCTVSGDSISSGDYYWIWIRQHPGKGLEWIGYIYYSGSTYYNPSLKSRVTISVDTSKNQFSLKLSSVTAADTAVYYCARVEYCSGGSCRRHNWFDPWGQGTLVTVSS VL: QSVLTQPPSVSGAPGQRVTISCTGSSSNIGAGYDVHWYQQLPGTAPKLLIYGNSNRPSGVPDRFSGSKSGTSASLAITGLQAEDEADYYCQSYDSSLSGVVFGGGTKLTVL = binds
P5-2H11 (antibody, V domains shown) VH: EVQLVESGGGLIQPGGSLRLSCAASEFTVSSNYMSWVRQAPGKGLEWVSIIYSGGSTFYADSVKGRFTISRDNSQNTLYLQMNSLRAEDTAVYYCARTLPLYGDYFDYWGQGTLVTVSS VL: QSVLTQPPSVSGAPGQRVTISCTGSSSNIGAGYDVHWYQQLPGTAPKLLIYGNNNRPSGVPDRFSGSKSGTSASLAITGLQPEDEADYYCQSYDSSLSVVFGGGAKLTVL = binds
P195-2A1 (antibody, V domains shown) VH: EVQLVESGGGLVQPGGSLRLSCAASGFTVSSNYMSWVRQAPGKGLEWVSVIYSGGSTYYADSVKGRFTISRDNSKNTLYLQMNSLRAEDTAVYYCARGEGGDLPFDYWGQGTLVTVSS VL: QSALTQPASVSGSPGQSITISCTGTSSDVGGYYYVSWFQQHPGEAPKLMIFDVSKRPSGVSNRFSGSKSGNTASLTISGLQAEDEADYYCSSYTSSSTSHVLFGGGTKLTVL = binds

Data provenance: paper PMC10063446
